Quick reference for normalized growth among some molecules
# TEST_DESCRIPTION: chemical genetic growth profiling, strain panel (AID 1159580);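 note: tested at 20 µM; growth read once vehicle control cultures reached saturation at 30 °C; 1 = growth at the plate median or of vehicle wells; lower values mean less growth of the strain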
# TEST_CONTEXT: S. cerevisiae deletion strains, growth OD, locus YKR026C, strain gcn3, hits give low values
The campaign covered roughly 5,500 compounds. About 2,000 (36%) were called active. About 18% were inconclusive and are not listed. The list shows a part of the results.
Reply with just the number.

Worked cases, answers included:
COc1cc(S(C)=O)ccc1-c1nc2ncccc2[nH]1 (centres undefined)	0.98
CC(=O)Nc1nnc(S(N)(=O)=O)s1	1
COc1ccc(C(=O)N2CCCC2=O)cc1	0.976

// sample C[C@@H]1CC2C3C[C@H](F)C4=CC(=O)C=C[C@]4(C)[C@@]3(F)[C@@H](O)C[C@]2(C)[C@@]1(O)C(=O)COC(=O)C(C)(C)C (some centres undefined) , its normalized growth was 0.997

Reported normalized growth for `CC(=O)N=c1sc(S(N)(=O)=O)nn1C` was 1.01

Documented normalized growth of `CNCCCN1c2ccccc2CCc2ccccc21` : 1.01

Briefly, normalized growth measured for CCN(CC)C(C)CN1c2ccccc2Sc2ccccc21 (centres undefined) : 1.01

Given item NS(=O)(=O)c1cc2c(cc1Cl)NC(C1CC3C=CC1C3)NS2(=O)=O (centres undefined) , the value recorded as its normalized growth is 0.976

// recorded normalized growth for `O=c1cc(-c2ccccc2)oc2cc(O)c(O)c(O)c12` : 0.572

====

# TEST_DESCRIPTION: chemical genetic growth profiling, strain panel (AID 1159580)
# TEST_CONTEXT: S. cerevisiae deletion strains, growth OD, locus YOL012C, strain htz1
Out of some 5,500 compounds screened, about 2,000 (36%) were called active. Another 18% or so got no clear call; they are omitted. Some of the results follow.
The following compounds are listed with their measured normalized growth values.

Solved cases below.
CC(CN(C)C)CN1c2ccccc2CCc2ccccc21 (stereo not given)	1.63 (inactive)
CC1=C2[C@H]3OC(=O)[C@@H](C)[C@@H]3CC[C@@]2(C)C=CC1=O	0.992 (inactive)
CC(=O)O[C@H]1C[C@@H](OC(C)=O)C(C)(C)C2CC(=O)[C@]3(C)C(CC[C@@]4(C)[C@H](c5ccoc5)OC(=O)[C@H]5O[C@]543)[C@]21C (stereo not given in full)	1 (inactive)
CNCCCN1c2ccccc2CCc2ccccc21	0.655 (inactive)

Looking up COc1cc(S(C)=O)ccc1-c1nc2ncccc2[nH]1 (stereo not given) , I found its normalized growth recorded as 1.02 (inactive)

====

# TEST_DESCRIPTION: chemical genetic growth profiling, strain panel (AID 1159580)
# TEST_CONTEXT: S. cerevisiae deletion strains, growth OD, locus YGL248W, strain PDE1, hits give low values
The whole screen tested about 5,500 compounds, of which about 2,000 (36%) were called active. Another 18% or so got no clear call; they are omitted. Some of the results follow.
Measured normalized growth, listed per entry.
Form rule: numeric answer, no unit written next to it.

Below: 3 compounds and their reported normalized growth.
CC(CCC(=O)O)[C@H]1CCC2C3CC[C@@H]4C[C@H](O)CC[C@]4(C)C3C[C@H](O)[C@@]21C (some centres undefined)	1.03
CC(CCC(=O)O)[C@H]1CCC2C3C(C[C@H](O)[C@@]21C)[C@@]1(C)CC[C@@H](O)C[C@H]1C[C@H]3O (some centres undefined)	1.02
CC(CCC(=O)O)[C@H]1CCC2C3CC[C@@H]4CCCC[C@]4(C)C3CC[C@@]21C (some centres undefined)	1

normalized growth measured on COC(=O)CCC(C)[C@H]1CCC2C3C(C[C@H](O)[C@@]21C)[C@@]1(C)CC[C@@H](O)C[C@H]1C[C@H]3O (some centres undefined) = 1.01

====

# TEST_DESCRIPTION: chemical genetic growth profiling, strain panel (AID 1159580)
# TEST_CONTEXT: S. cerevisiae deletion strains, growth OD, locus YHR094C, strain hxt1, hits give low values
Among all 5,500 compounds or so, about 2,000 (36%) were called active. Inconclusive results (about 18%) are left out. The list shows a part of the results.
MEASURE_NAME: normalized growth
# respond with the number and nothing more

Cc1cc(O)c(C=O)c2c1C(=O)Oc1c(COC(=O)/C=C/C(=O)O)c(O)c(C(=O)O)c(C)c1O2	0.994
Clc1ccc2c(c1)C(N1CCNCC1)=Nc1ccccc1O2	0.998
COc1c2ccccc2nc2occc12	1.01
CCCCCC1C(=O)CCC1CC(=O)OC (stereo not drawn)	0.986
CCCC(CCC)C(=O)O	0.97
COc1cc(C(=O)O)c2c(c1C)OC(=O)c1c(C)cc(O)c(C=O)c1O2	0.989
CN(C)C(=O)Nc1ccc(Cl)c(Cl)c1	1
Cc1cc(O)c(C=O)c2c1C(=O)Oc1c(C)c(O)c3c(c1O2)C(O)OC3=O (stereo not drawn)	0.971

With those in mind, consider the next compound.
Entry `C[C@H](N)[C@H](O)c1cccc(O)c1` , normalized growth reported as 0.979

====

# TEST_DESCRIPTION: chemical genetic growth profiling, strain panel (AID 1159580)
# TEST_CONTEXT: S. cerevisiae deletion strains, growth OD, locus YOL136C, strain PFK27, hits give low values
Hit rate of the full screen: of about 5,500 compounds, about 2,000 (36%) were called active. Roughly 18% stayed inconclusive and do not appear here. Some of the results follow.
Entries whose normalized growth is below 0.9 take 1; entries at or above 0.9 take -1.

Solved entries:
CC1C/C(=N/Nc2ccc(Br)cc2)c2cc(Cl)ccc2S1 (configuration not stated)	1
C/C(=N/Nc1ccccc1)c1cc(Cl)cc(Cl)c1O	1
COc1ccc(C(=O)NCc2csc3ccc(Cl)cc23)cc1OC	-1
S=C(NNc1ccccc1)Nc1cc(Cl)ccc1Cl	-1
O=C(Nc1cccc2ccccc12)c1ccccc1O	1
CC(C)(C)C(=O)/C(C#N)=C/c1c(Cl)cccc1Cl	1

Consider the molecule `O=C(Nc1ccc(F)c(Cl)c1)c1ccccc1O` . Is its normalized growth strictly less than 0.9?
1

Input `CS(=O)(=O)c1sc(C(=O)Sc2ccc(Cl)cc2)c2c1C=CCC2` ; condition: normalized growth strictly below 0.9. Does it hold?
1

Dear colleague, could you confirm whether normalized growth of `S=C(Nc1cc(Cl)c(Cl)cc1Cl)Nc1ccccc1Br` falls below 0.9? Thanks.
1

====

# TEST_DESCRIPTION: chemical genetic growth profiling, strain panel (AID 1159580);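 note: tested at 20 µM; growth read once vehicle control cultures reached saturation at 30 °C; 1 = growth at the plate median or of vehicle wells; lower values mean less growth of the strain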
# TEST_CONTEXT: S. cerevisiae deletion strains, growth OD, locus YOL012C, strain htz1
Screen size: about 5,500 compounds; about 2,000 (36%) were called active. Roughly 18% stayed inconclusive and do not appear here. This is one part of the list.
Reported normalized growth by item:
Reply with just the number.

Known normalized growth results, listed for orientation:
OC1=Cc2c(O)cc(O)cc2OC1(O)c1ccc(O)c(O)c1 (stereo unspecified)	0.48
CNC(=O)Oc1ccc2c(c1)[C@]1(C)CCN(C)[C@@H]1N2C	0.928
CC(CN1c2ccccc2Sc2ccccc21)N(C)C (stereo unspecified)	1.06

The measured normalized growth associated with COc1cc2c(cc1O)C(Cc1ccc(O)cc1)N(C)CC2 (stereo unspecified) reads 0.669

Recorded normalized growth (compound `O=c1cc(-c2ccccc2)oc2c(O)c(O)ccc12` ): 0.521

`O=c1cc(-c2cc(O)c(O)c(O)c2)oc2cc(O)cc(O)c12` has a reported normalized growth of 0.547

====

# TEST_DESCRIPTION: chemical genetic growth profiling, strain panel (AID 1159580);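 note: tested at 20 µM; growth read once vehicle control cultures reached saturation at 30 °C; 1 = growth at the plate median or of vehicle wells; lower values mean less growth of the strain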
# TEST_CONTEXT: S. cerevisiae deletion strains, growth OD, locus YDR195W, strain ref2
Among all 5,500 compounds or so, about 2,000 (36%) were called active. Not shown: some 18% with an inconclusive outcome. The list shows a part of the results.
# if value of normalized growth reaches 1, tag MET; if it stays below, tag NOT MET

Cc1cc(O)c(C=O)c2c1C(=O)Oc1c(COC(=O)/C=C/C(=O)O)c(O)c(C(=O)O)c(C)c1O2	MET
NC(Cc1ccc(F)cc1)C(=O)O (centres undefined)	MET
CC12CC3CC(C)(C1)CC(N)(C3)C2	NOT MET

Hi, just wondering whether CN(CCC(N)CC(=O)N[C@H]1C=CC(n2ccc(N)nc2=O)O[C@@H]1C(=O)O)C(=N)N (some centres undefined) shows normalized growth of 1 or higher.
NOT MET

Quick check: does C[C@H](CCC(=O)O)[C@H]1CCC2C3C(CC[C@@]21C)[C@@]1(C)CC[C@@H](O)C[C@H]1C[C@H]3O (some centres undefined) have normalized growth greater than or equal to 1?
MET

Confirm if normalized growth reported for the molecule `COc1cc(C)c(C(=O)Oc2cc(C)c(C(=O)O)c(O)c2C)c(OC)c1C` is 1 or above.
NOT MET

====

# Lookup of reported normalized growth keyed by entry
# TEST_DESCRIPTION: chemical genetic growth profiling, strain panel (AID 1159580);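 note: tested at 20 µM; growth read once vehicle control cultures reached saturation at 30 °C; 1 = growth at the plate median or of vehicle wells; lower values mean less growth of the strain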
# TEST_CONTEXT: S. cerevisiae deletion strains, growth OD, locus YLL026W, hits give low values
Hit rate of the full screen: of about 5,500 compounds, about 2,000 (36%) were called active. Another 18% or so got no clear call; they are omitted. Some of the results follow.
Output: the number by itself.

COc1c(Cl)ccc(Cl)c1C(=O)O	0.979

Field normalized growth (entry `CCN(CCCc1ccccc1)CCCc1ccccc1` ) reads 0.997

Query `CN(C(=O)CN(CCO)CC(=O)N(C)C(C)(C)Cc1ccccc1)C(C)(C)Cc1ccccc1` yields normalized growth of 1.02
